The measured values listed here are drawn from patent US20230248800A1.

Biological target: human V1a receptor (human) (UniProt P37288)
Sequence (P37288 whole entry): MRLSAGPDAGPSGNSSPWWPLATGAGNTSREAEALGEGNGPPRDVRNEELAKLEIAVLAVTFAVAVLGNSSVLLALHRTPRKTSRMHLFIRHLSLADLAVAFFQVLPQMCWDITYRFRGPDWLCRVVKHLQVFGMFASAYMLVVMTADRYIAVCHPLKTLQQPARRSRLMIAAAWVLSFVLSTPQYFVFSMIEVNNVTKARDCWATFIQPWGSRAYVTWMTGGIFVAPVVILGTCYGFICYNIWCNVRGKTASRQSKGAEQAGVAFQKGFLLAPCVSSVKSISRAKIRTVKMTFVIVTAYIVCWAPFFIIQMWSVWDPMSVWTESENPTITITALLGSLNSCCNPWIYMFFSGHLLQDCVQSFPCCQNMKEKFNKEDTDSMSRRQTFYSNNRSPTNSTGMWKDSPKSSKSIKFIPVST
Experiment: cell-based or functional assay
value_type: Estimated V1a EC50 (calcium flux)
Number plus unit, in that order.

Reference set, count: 5
binder	Estimated V1a EC50 (calcium flux)
XFXNCPXG (Mpa at position 1, disulfide bond between Mpa and Cys; Hgn at position 4; (Gly)4 on the side chain of Lys 8; C-terminal amide) [Mpa-Tyr-Phe-Hgn-Asn-Cys-Pro-Lys(X)a-Gly-NH2; (X)a = (Gly)4 [SEQ ID NO. 11]]	161 nM
XFXNCPXG (Mpa at position 1, disulfide bond between Mpa and Cys; Hgn at position 4; (Gly)6 on the side chain of Lys 8; C-terminal amide) [Mpa-Tyr-Phe-Hgn-Asn-Cys-Pro-Lys(X)a-Gly-NH2; (X)a = (Gly)6 [SEQ ID NO. 13]]	45.9 nM
XFXNCPXG (Mpa at position 1, disulfide bond between Mpa and Cys; Hgn at position 4; (Gly)7 on the side chain of Lys 8; C-terminal amide) [Mpa-Tyr-Phe-Hgn-Asn-Cys-Pro-Lys(X)a-Gly-NH2; (X)a = (Gly)7 [SEQ ID NO. 14]]	30.9 nM
XFXNCPXG (Mpa at position 1, disulfide bond between Mpa and Cys; Hgn at position 4; (Gly)8 on the side chain of Lys 8; C-terminal amide) [Mpa-Tyr-Phe-Hgn-Asn-Cys-Pro-Lys(X)a-Gly-NH2; (X)a = (Gly)8 [SEQ ID NO. 15]]	226 nM
XFXNCPXG (Mpa at position 1, disulfide bond between Mpa and Cys; Hgn at position 4; (Gly)9 on the side chain of Lys 8; C-terminal amide) [Mpa-Tyr-Phe-Hgn-Asn-Cys-Pro-Lys(X)a-Gly-NH2; (X)a = (Gly)9 [SEQ ID NO. 16]]	105 nM

Let's switch to this binder now.
Lookup: Please report the recorded Estimated V1a EC50 (calcium flux) for XFXNCPXG (Mpa at position 1, disulfide bond between Mpa and Cys; Hgn at position 4; (Gly)3 on the side chain of Lys 8; C-terminal amide) [Mpa-Tyr-Phe-Hgn-Asn-Cys-Pro-Lys(X)a-Gly-NH2; (X)a = (Gly)3 [SEQ ID NO. 10]] .
Found: 53.5 nM
